System: PPARg:RXRa 90nM:30nM, anti-RXR (NR concentration 90 nM, RXRa partner concentration 30 nM)
Method description: PBM binding z-score (relative to random genomic background probes); higher = stronger binding; sequences stand for … in GC…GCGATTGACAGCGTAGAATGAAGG
Provide the recorded PBM binding z-score for the entries that follow.

For orientation, consider the following solved cases.
Ordered residues	Observed value
CAAACTAGTTCAAGGTCAAAGTCGGTTTGTGCCA	3.03
CAAACTAGGTCAAGGCCAAAGTCGGTTTGTGCCA	6.26
AGAATGAAGTTATTAAGATCAGGGAATTGCGGTC	0.114
ATCTCTAGGTAAAGTTCAGTGACAGATCGATAGA	4.24
CAGCCTAGGTCAGGGCCAGTTTAGGAGGAACGTT	0.124
ATATTTAGGTTAGCTGGGGTCATTCAGACTAGGC	3.88
TCAGACAGTTGAAGGTAACTCAGGTACGCAGTCG	3.4
ATCTCTAGGTAAGACCCAGTTCAGTGAAGAACGC	0.526
TCTATTAGTTGACGGGCAACCGACGAGTCCGTTT	2.48
CCTTACGGCTCACGAGGTTATAGCACGACGAGCG	0.0892

I need PBM binding z-score for every entry listed below, if you could help.
1. ATCGAAAGGTCGACGAGGTGTGTATACACCGTTT
2. CCGACCGGGGCAAGGTTACCATAACGCACAGCCA
3. TCACGGAGGACACGAAGGTCAGAGCTTTCCAGAG
4. CCTATTAGTTGACCACAAGGGCAACCGAAGCTCG
5. TCTTGTAGATCAACAGGAAGTTAAGAAAGATCGA
6. CCTCGGAGGACCACAGGAGGTCAGAGCTGCCAGA
7. TCAGACAGGTGAAGGTAACTCTGGTACGCAGTCG
8. CAAACTAGGTCAAGAGGTTAAAGTCCGCTTCCCG

[2.17, 0.495, 1.87, 0.256, 1.58, -0.575, 2.66, 7.16]
